Attribution: ChEMBL document CHEMBL1201862

Let's look at some compounds and their measured GI50.
System: SNB-19
Assay: NCI tumour cell line growth inhibition, 48 h
Active and inactive are the calls of the source. No stated cut-off is given here; in the data, active = GI50 up to about 1.1 µM and inactive = higher.

A selection of reference data follows.
{"columns": ["COMPOUND", "ASSAY TARGET", "MEASURED METRIC", "RECORDED VALUE"],
 "data": [
  ["CC(=O)/C=C(/C=N/O)c1ccccc1", "SNB-19", "GI50", "> 100 µM (inactive)"],
  ["Nc1nc(Cl)cc(Nc2ccc3c(c2)CCC3)n1", "SNB-19", "GI50", "> 100 µM (inactive)"]
]}

Problem: Bench note: what GI50 did [O-][n+]1c2c([n+]([O-])c3ccccc31)CCCCCCCCCC2 show?
Result: > 100 µM (inactive)

Problem: Note, next up: Cc1ccc(C2=Nc3c(c(C)nn3-c3ccccc3)N=C(C(=O)O)C2)cc1
Result: > 10 µM (inactive)

Problem: Note, next up: N#Cc1c(-c2ccc(Cl)cc2)c2c([nH]c1=O)-c1cc([N+](=O)[O-])ccc1CCC2
Result: 20.5 µM (inactive)

Problem: Note, next up: COc1ccc(COCC[C@H](C)OC2OC(CO[Si](C)(C)C(C)(C)C)C(O)C(O)C2O)cc1 (some centres not stated)
Result: > 100 µM (inactive)

Problem: Note, next up: CC(=O)O[C@]12CCCC1C1(O)C(O)CCCC12 (some centres not stated)
Result: > 100 µM (inactive)

Problem: Note, next up: CSC1=N/C(=C\c2ccc(Cl)cc2)C(=O)N1CN1CCOCC1
Result: 31.8 µM (inactive)

Problem: Note, next up: O=C(N/N=C/c1ccc(Cl)cc1)c1ccccc1Nc1ccccc1C(=O)N/N=C/c1ccc(Cl)cc1
Result: > 100 µM (inactive)

Problem: Note, next up: O=C(c1cccnc1)N1N=C(c2ccc(Cl)cc2)CC1(O)c1cc(F)c(Cl)cc1Cl (configuration not stated)
Result: 41.3 µM (inactive)

Problem: Note, next up: O=C1C[C@H](c2ccccc2)C2(C(=O)c3ccccc3C2=O)[C@@H](c2ccccc2)C1
Result: 23.9 µM (inactive)

Problem: Note, next up: O=C(CCc1ccccc1)ON1C(=S)NC(c2ccccc2)(c2ccccc2)C1=S
Result: 64.4 µM (inactive)

Problem: Note, next up: NS(=O)(=O)c1ccc(NC(=O)Cc2nc3ccccc3s2)cc1
Result: 23.5 µM (inactive)

Problem: Note, next up: COC(=O)CC(CNC(=O)OCc1ccccc1)OCc1ccc(OC)cc1 (configuration not stated)
Result: > 100 µM (inactive)

Problem: Note, next up: CC1C[C@H](C)CC(C(O)CC2CC(=O)N(Cc3ccccc3)C(=O)C2)C1O (some centres not stated)
Result: > 100 µM (inactive)

Problem: Note, next up: Nc1ccccc1C(=O)CC1OC(=O)c2ccccc21 (configuration not stated)
Result: 42.1 µM (inactive)

Problem: Note, next up: CC(C)(C)[C@H]1CCC2(OCCO2)[C@](O)(CCCO)C1
Result: > 100 µM (inactive)

* * *

Let's look at some compounds and their measured GI50.
Test system: UO-31
Test: NCI tumour cell line growth inhibition, 48 h
Calls of active or inactive are those of the source. Cut-off read from the data, not from the text of the source: active = GI50 up to about 1.1 µM and inactive = higher.

A selection of reference data follows.
{"columns": ["COMPOUND", "GI50"],
 "data": [
  ["CC(=O)O[C@H]1C(=O)[C@@]2(C)[C@H]([C@H](OC(=O)c3ccccc3)[C@]3(O)C[C@H](OC(=O)[C@H](O)[C@@H](NC(=O)CC(C)(C)C)c4ccccc4)C(C)=C1C3(C)C)C1(OC(C)=O)CO[C@@H]1C[C@@H]2O (some centres undefined)", "3.96 µM (inactive)"],
  ["O=C(c1ccccc1)c1cn(/N=C\\c2ccccc2)c(=O)nc1-c1ccccc1", "> 100 µM (inactive)"],
  ["COc1ccc(C2c3c[nH]nc3CC3CCCCC32)cc1 (centres undefined)", "14 µM (inactive)"]
]}

Problem: Bench note: what GI50 did CC(C)(C)[Si](C)(C)OCC1OC(n2cnc3c(=O)[nH]cnc32)CC1O (centres undefined) show?
Result: > 100 µM (inactive)

* * *

System: HT-29
Assay: NCI tumour cell line growth inhibition, 48 h
Activity calls are given as the source filed them. No stated cut-off is given here; in the data, active = GI50 up to about 1.1 µM and inactive = higher.
MEASURED METRIC: GI50

Problem: Bench note: what GI50 did CC1C[C@H](C)CC(C(O)CC2CC(=O)N(Cc3ccccc3)C(=O)C2)C1O (stereo partly specified) show?
Result: > 100 µM (inactive)

Problem: Note, next up: NC(=O)C12CCC1C1CCCCC12N1CCOCC1 (stereo unspecified)
Result: > 100 µM (inactive)

Problem: Note, next up: Clc1cc(Cl)c2n[se]nc2c1
Result: > 100 µM (inactive)

Problem: Note, next up: CCOC(=O)C(C)c1nc2cc(N3CCN(C)CC3)c(F)cc2[nH]c1=O (stereo unspecified)
Result: > 100 µM (inactive)

Problem: Note, next up: CC(C)(C)C1=NC(=P(c2ccccc2)(c2ccccc2)c2ccccc2)C(=O)O1
Result: > 100 µM (inactive)

Problem: Note, next up: COc1cc2c(cc1[N+](=O)[O-])C(=O)C(Br)(Br)CCC2
Result: 4.88 µM (inactive)

* * *

Tested on: OVCAR-3
Assay: NCI tumour cell line growth inhibition, 48 h
Calls of active or inactive are those of the source. No stated cut-off is given here; in the data, active = GI50 up to about 1.1 µM and inactive = higher.
MEASURED METRIC: GI50

A selection of reference data follows.
{"columns": ["COMPOUND", "GI50"],
 "data": [
  ["COc1cc(O)ccc1C(=S)SC", "62.4 µM (inactive)"],
  ["COc1ccc(-c2cc(-c3ccc(Nc4ccnc5cc(C(F)(F)F)ccc45)cc3)nc(N)c2C#N)cc1", "14.6 µM (inactive)"],
  ["Cc1cn(C2OC(C)(CO)C(O)C2O)c(=O)[nH]c1=O (configuration not stated)", "> 100 µM (inactive)"]
]}

Problem: Give OVCAR-3 GI50 for O=CN(CCN1CCCC1)C1CCc2cc(Cl)c(Cl)cc2C1 (configuration not stated)
Result: 12.3 µM (inactive)

Problem: Note, next up: CCc1cc(C(=O)OC)cn1C(=N)c1ccc(Cl)cc1
Result: > 100 µM (inactive)

Problem: Note, next up: O=C(/C=C/c1ccc(Cl)c(Cl)c1)C1CCC(Cl)CC1 (configuration not stated)
Result: 15 µM (inactive)

Problem: Note, next up: CC(=O)c1ccc(O)c(CN(C2CCCCC2)C2CCCCC2)c1O
Result: > 100 µM (inactive)

* * *

System: NCI/ADR-RES
Experiment: NCI tumour cell line growth inhibition, 48 h
Active and inactive are the calls of the source. Rule as the data show it: active = GI50 up to about 1.1 µM and inactive = higher.
Let's look at some compounds and their measured GI50.

{"columns": ["COMPOUND", "GI50"],
 "data": [
  ["O=[N+]([O-])c1ccc2c(c1)N=C1OC(c3c[nH]c4ccc(COc5ccccc5)cc34)C(O)=C1N2 (stereo unspecified)", "> 100 µM (inactive)"],
  ["O=C1/C(=C/c2ccc(Cl)cc2)CNC/C1=C\\c1ccc(Cl)cc1", "2.91 µM (inactive)"],
  ["Cc1ncc(COP(=O)(O)O)c(C)c1O", "> 100 µM (inactive)"],
  ["COc1cc2c(cc1OC)-c1cc3ccc(OC)c(OC)c3c[n+]1CC2 [PALMATINE CHLORIDE]", "> 100 µM (inactive)"],
  ["O=C(O)c1cc(CCc2cc(O)ccc2O)ccc1O", "> 100 µM (inactive)"]
]}

Problem: Bench note: what GI50 did N#CC1N(C(=O)c2ccc(F)cc2)c2ccccc2N1C(=O)c1ccc(F)cc1 show?
Result: 26.7 µM (inactive)

Problem: Note, next up: N#CCc1nc(-c2cc3ccc(O)cc3oc2=O)cs1
Result: > 100 µM (inactive)

Problem: Note, next up: CC(C)(C)[C@H]1CCC2(OCCO2)[C@](O)(CCCO)C1
Result: > 100 µM (inactive)

* * *

Tested on: NCI-H23
Assay: NCI tumour cell line growth inhibition, 48 h
Calls of active or inactive are those of the source. No stated cut-off is given here; in the data, active = GI50 up to about 1.1 µM and inactive = higher.
Let's look at some compounds and their measured GI50.

{"columns": ["COMPOUND", "MEASURED METRIC", "RECORDED VALUE"],
 "data": [
  ["N#CCc1nc2cc(C(F)(F)F)ccc2s1", "GI50", "27.7 µM (inactive)"]
]}

Problem: Give NCI-H23 GI50 for N=C(N)NS(=O)(=O)c1ccc(NC(=O)c2ccc(Cl)c3c(Nc4ccc(S(=O)(=O)N=C(N)N)cc4)c4ccccc4nc23)cc1
Result: > 100 µM (inactive)

Problem: Note, next up: CN(C)CCN(/C(=N/c1ccccc1)N1CCCC1)c1ccccc1
Result: 31 µM (inactive)

Problem: Note, next up: CCOC(=O)[C@@H]1C[C@H]1c1ccc(O)c(O)c1
Result: 4.74 µM (inactive)

Problem: Note, next up: O=C(O)c1cccc2cccc(-c3c4ccc(=O)cc-4oc4cc(O)ccc34)c12
Result: > 100 µM (inactive)

Problem: Note, next up: Cc1cc2ccc(N)nc2nc1O
Result: > 100 µM (inactive)
